Entries annotated with measured TGI
- System: KM20L2 colon
- PROTOCOL TEXT: NCI tumour cell line growth inhibition, 48 h
QUANTITY KIND: TGI

MOLECULE	QUANTITY KIND	MEASURED RESULT
c1ccc(CN(Cc2ccccn2)Cn2cccn2)nc1	TGI	> 100 µM
CC1=CC(=O)c2[nH]c3ccccc3c2C1=O	TGI	> 25 µM
O=C(O)C(O)C(O)C1[O][Sb][O]C1CO (stereo not drawn)	TGI	> 100 µM
Nc1nc(Cl)cc(NCCCCCCCCCCNc2cc(Cl)nc(N)n2)n1	TGI	> 100 µM
O=C1CCCC2COc3ccc(O)c1c32 (stereo not drawn)	TGI	> 100 µM
Cc1ccc(C)c2sc3cc(=O)ccc-3nc12	TGI	> 100 µM
C#Cc1ccccc1C(=O)OC	TGI	> 100 µM
CC(=O)Nc1[nH]c(=O)[nH]c(=O)c1N(C(C)=O)C(C)=O	TGI	> 100 µM
CCCC/C(C)=N/NC(N)=S	TGI	> 100 µM
Cc1ccc(NC(=O)NC23CC4CC(CC(F)(C4)C2)C3)cc1	TGI	> 100 µM
C(=C1/CCCCC([n+]2ccccc2)=N1)/c1ccccc1	TGI	> 100 µM
Nc1ncnc2c(C3OC(CO)C(O)C3O)c[nH]c12 (stereo not drawn)	TGI	1.1 µM
COc1ccc(/C=C/CO)cc1OC	TGI	> 100 µM

###

- System: MOLT-4 leukemia
- PROTOCOL TEXT: NCI tumour cell line growth inhibition, 48 h; in the data active means GI50 below about 0.43 µM; inactive means the rest
Possible outcomes: Y (active), N (inactive)

QUERY SMILES	CLASS
Cc1cc(I)cc(CN(C)CCCCN2CCCC2)c1O	N
COCCOCCOCCOCCOc1ccc2c(c1)C(=O)c1nc3ncccc3c(=O)n1-2	N
C[C@@H]1CC[C@H]2C(CN3CCN(CC4=C(C(F)(F)F)O[C@@H]5O[C@@]6(C)CC[C@H]7[C@H](C)CC[C@@H]4[C@@]57OO6)CC3)=C(C(F)(F)F)O[C@@H]3O[C@@]4(C)CC[C@@H]1[C@]32OO4	N
C[C@H]1CC(=O)[C@@]2(O)C#C/C=C\C#C[C@@H]3Nc4c(cc(O)c5c4C(=O)c4ccccc4C5=O)[C@]24O[C@]314	Y
O=C(/C=C/c1cccs1)Nc1ncc(Cc2ccccc2F)s1	Y
Cn1cc(/C=C2\C(=O)Nc3cccnc32)c2ccccc21	N
CCc1ccc(/C=C2/SC(=S)NC2=O)cc1	N
O=C(Nc1ccc(-c2nc3ccc(NC(=O)c4ccc(Cl)cc4)cc3[nH]2)cc1)c1ccc(Cl)cc1	N
NC(=O)c1ccc(-c2c3ccccc3cc3c2ccc2ccccc23)cc1	N
NC(=O)c1ccc(NC(=O)c2oc3ccccc3c2-c2cnn(-c3ccccc3)c2)cc1	N

###

- System: RXF 393 renal
- PROTOCOL TEXT: NCI tumour cell line growth inhibition, 48 h
QUANTITY KIND: TGI

MOLECULE	MEASURED RESULT
C/C(=N\N=C(N)N)c1sc(-c2nc(C)c(/C(C)=N/N=C(N)N)s2)nc1C	> 95.3 µM
CC(=O)OCC1OC(O[C@@H]2C[C@H]3C(C)(C)[C@H](OC(C)=O)CC[C@]3(C)[C@H]3CC[C@@H]4[C@]5(CC[C@@]4(C)[C@@]32C)O[C@@H]([C@H](O)C(C)(C)O)C[C@@H]5C)C(O)C(O)C1O (some centres undefined)	16.1 µM
CCOC(=O)Cn1c(C)nc2nn(Cc3ccccc3)cc2c1=O	> 100 µM
O=C(c1ccccc1)c1ccc2c(c1)N=C(c1ccc(Cl)c(Cl)c1)CC(c1ccc3ccccc3c1)N2 (centres undefined)	> 100 µM
CNc1ccc([N+](=O)[O-])cc1C(=O)N1CCC[C@H]1CO	> 100 µM
C=C1C(=O)O[C@H]2[C@@H](O)[C@H](C)CCC/C(C)=C/CC[C@@]3(C)O[C@@H]3C[C@@H]12	16.4 µM
OCC(CO)CC1COc2ccccc2O1 (centres undefined)	> 10 µM
Fc1ccccc1C1SCC2=Nc3ccccc3CN21 (centres undefined)	> 100 µM
CCOC(=O)c1cc2cc([N+](=O)[O-])ccc2oc1=O	> 100 µM
